Taken from patent EP0719251B1.

system.name: gastrin (Rattus norvegicus, UniProt P30553)
Construct: The stomach was excised and flushed with ca. 1 ml of unbuffered physiological saline solution; from tissue; host or cells: isolated whole stomach of immature rats (33-50 g, ca. 21 days old)
Sequence (P30553 1-452): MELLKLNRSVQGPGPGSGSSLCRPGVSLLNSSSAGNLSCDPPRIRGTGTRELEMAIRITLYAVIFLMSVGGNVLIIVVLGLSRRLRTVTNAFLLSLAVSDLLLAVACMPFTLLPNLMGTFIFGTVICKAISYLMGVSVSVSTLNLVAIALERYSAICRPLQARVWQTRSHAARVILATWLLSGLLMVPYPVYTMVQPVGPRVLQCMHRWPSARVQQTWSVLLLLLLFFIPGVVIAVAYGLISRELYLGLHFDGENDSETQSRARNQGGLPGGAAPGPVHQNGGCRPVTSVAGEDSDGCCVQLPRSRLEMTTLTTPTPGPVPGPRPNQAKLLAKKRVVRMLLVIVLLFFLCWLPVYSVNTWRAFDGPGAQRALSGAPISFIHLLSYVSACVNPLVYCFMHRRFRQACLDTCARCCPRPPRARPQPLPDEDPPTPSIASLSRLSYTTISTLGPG
assay.notes: gastrin antagonist activity in an immature rat stomach assay
condition.summary: isolated immature rat stomach, cumulative pentagastrin dose-response curves, acid secretion; read-out: Gastrin pKB (converted)
Experimental: The compounds of the examples were also tested for gastrin antagonist activity in an immature rat stomach assay. The procedure was as follows: The oesophagus of immature rats (33-50 g, ca. 21 days old) was ligated at the level of the cardiac sphincter and the duodenal sphincter was cannulated. The stomach was excised and flushed with ca. 1 ml of unbuffered physiological saline solution. The fundus was punctured and cannulated. […]
quantity: Kb (nM)

(P) CC(C)(NC(=O)C1C2c3ccccc3C(c3ccccc32)C1C(=O)N[C@@H](Cc1ccccc1)C(=O)Nc1cc(C(=O)O)cc(C(=O)O)c1)C12CC3CC(CC(C3)C1)C2 (stereo partly drawn)
(Q) O=C(O)c1cc(NC(=O)[C@H](Cc2ccccc2)NC(=O)C2C3c4ccccc4C(c4ccccc43)C2C(=O)NCc2ccc(Cl)c(Cl)c2)cc(C(=O)O)c1 (single isomer, unassigned) [Example 35]
(R) O=C(O)c1cc(NC(=O)[C@H](Cc2cccc(F)c2)NC(=O)C2C3c4ccccc4C(c4ccccc43)C2C(=O)NCC23CC4CC(CC(C4)C2)C3)cc(C(=O)O)c1 (single isomer, unassigned) [Example 18]
Rank by decreasing Kb the items listed here. Lab note: final answer is the ordered label list.
Q, P, R

----------
system.name: CCKB receptor (Mus musculus)
Construct: The whole brains from male mice (CD1 22-25g; Charles River) were removed; from tissue; host or cells: cerebral cortex membranes of male CD1 mice
assay.notes: radioligand binding assay at the CCKB receptor in mouse cortical membranes
condition.summary: [125I]-CCK8S 200pM, 150 min at 21 ± 3°C, read-out: CCKB pKi (converted)
quantity: Ki (nM)

Which value of Ki has been reported for O=C(O)c1cccc(NC(=O)[C@H](Cc2ccccc2)NC(=O)C2C3c4ccccc4C(c4ccccc43)C2C(=O)NCC23CC4CC(CC(C4)C2)C3)c1 (single isomer, unassigned) [Example 41] in the records?
158

Which value of Ki has been reported for O=C(O)c1ccc(NC(=O)[C@H](Cc2ccccc2)NC(=O)C2C3c4ccccc4C(c4ccccc43)C2C(=O)NCC23CC4CC(CC(C4)C2)C3)cc1 (single isomer, unassigned) [Example 47] in the records?
126

(P) O=C(O)c1cc(NC(=O)[C@H](Cc2ccccc2Cl)NC(=O)C2C3c4ccccc4C(c4ccccc43)C2C(=O)NCC23CC4CC(CC(C4)C2)C3)cc(C(=O)O)c1 (some centres unmarked) [Example 20]
(Q) O=C(O)c1cccc(NC(=O)[C@H](Cc2cccs2)NC(=O)C2C3c4ccccc4C(c4ccccc43)C2C(=O)NCC23CC4CC(CC(C4)C2)C3)c1 (single isomer, unassigned) [Example 55]
// task: argmin of Ki over [ P , Q ] Give the label of your selection.
Q

----------
system.name: CCKB receptor (Mus musculus, UniProt P56481)
Construct: The whole brains from male mice (CD1 22-25g; Charles River) were removed; from tissue; host or cells: cerebral cortex membranes of male CD1 mice
Sequence (P56481 1-453): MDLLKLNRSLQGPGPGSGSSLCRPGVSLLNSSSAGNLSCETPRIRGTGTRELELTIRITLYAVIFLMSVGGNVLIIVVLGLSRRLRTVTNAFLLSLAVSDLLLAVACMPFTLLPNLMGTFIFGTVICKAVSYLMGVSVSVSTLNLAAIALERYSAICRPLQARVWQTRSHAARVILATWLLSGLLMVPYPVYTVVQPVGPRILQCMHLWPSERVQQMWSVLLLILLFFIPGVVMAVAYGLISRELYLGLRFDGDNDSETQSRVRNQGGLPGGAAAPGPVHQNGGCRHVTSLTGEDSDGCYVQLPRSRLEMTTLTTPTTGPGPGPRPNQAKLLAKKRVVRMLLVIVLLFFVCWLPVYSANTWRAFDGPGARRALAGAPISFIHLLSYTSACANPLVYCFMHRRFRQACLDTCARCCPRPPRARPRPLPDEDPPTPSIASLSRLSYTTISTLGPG
assay.notes: radioligand binding assay at the CCKB receptor in mouse cortical membranes
condition.summary: [125I]-CCK8S 200pM, 150 min at 21 ± 3°C, read-out: CCKB pKi (converted)
quantity: Ki (nM)

Here's what some known entries look like.
Which value of Ki has been reported for O=C(O)c1cc(NC(=O)[C@H](Cc2ccccc2)NC(=O)C2C3c4ccccc4C(c4ccccc43)C2C(=O)NCc2ccc(Cl)c(Cl)c2)cc(C(=O)O)c1 (single isomer, unassigned) [Example 35] in the records?
158

Which value of Ki has been reported for O=C(O)c1cc(NC(=O)[C@H](Cc2ccc(Cl)cc2)NC(=O)C2C3c4ccccc4C(c4ccccc43)C2C(=O)NCC23CC4CC(CC(C4)C2)C3)cc(C(=O)O)c1 (single isomer, unassigned) [Example 11] in the records?
251

Which value of Ki has been reported for O=C(O)c1cccc(NC(=O)[C@H](Cc2cccs2)NC(=O)C2C3c4ccccc4C(c4ccccc43)C2C(=O)NCC23CC4CC(CC(C4)C2)C3)c1 (single isomer, unassigned) [Example 56] in the records?
25.1

Which value of Ki has been reported for O=C(O)c1cc(NC(=O)[C@H](CC2CCCCC2)NC(=O)C2C3c4ccccc4C(c4ccccc43)C2C(=O)NCC23CC4CC(CC(C4)C2)C3)cc(C(=O)O)c1 (stereo partly shown) [Example 5] in the records?
25.1

Which value of Ki has been reported for O=C(O)c1cc(NC(=O)[C@H](Cc2ccccc2)NC(=O)C2C3c4ccccc4C(c4ccccc43)C2C(=O)NCCc2c[nH]c3ccccc23)cc(C(=O)O)c1 (single isomer, unassigned) [Example 50] in the records?
15.8

(P) O=C(O)c1cc(NC(=O)[C@H](Cc2cccs2)NC(=O)C2C3c4ccccc4C(c4ccccc43)C2C(=O)NCC23CC4CC(CC(C4)C2)C3)cc(C(=O)O)c1 (single isomer, unassigned) [Example 7]
(Q) O=C(O)c1cc(NC(=O)[C@H](Cc2ccccc2)NC(=O)C2C3c4ccccc4C(c4ccccc43)C2C(=O)NCC23CC4CC(CC(C4)C2)C3)cc(C(=O)O)c1 (single isomer, unassigned) [Example 1]
(R) O=C(O)c1ccccc1NC(=O)[C@H](Cc1ccccc1)NC(=O)C1C2c3ccccc3C(c3ccccc32)C1C(=O)NCC12CC3CC(CC(C3)C1)C2 (stereo partly shown) [Example 45]
(S) O=C(O)c1cc(NC(=O)[C@@H](Cc2ccccc2)NC(=O)C2C3c4ccccc4C(c4ccccc43)C2C(=O)NCC23CC4CC(CC(C4)C2)C3)cc(C(=O)O)c1 (single isomer, unassigned) [Example 3]
With regard to Ki, arrange the entries in ascending order, please. Lab note: final answer is the ordered label list.
Q, S, P, R
(Q: 1.58 nM, S: 10 nM, P: 50.1 nM, R: 200 nM)

----------
system.name: CCKA (Cavia porcellus, UniProt Q63931)
Construct: The pancreatata were removed from male guinea-pigs (200-300g; Dunkin Hartley); from tissue; host or cells: pancreas membranes of male Dunkin Hartley guinea-pigs
Sequence (Q63931 1-430): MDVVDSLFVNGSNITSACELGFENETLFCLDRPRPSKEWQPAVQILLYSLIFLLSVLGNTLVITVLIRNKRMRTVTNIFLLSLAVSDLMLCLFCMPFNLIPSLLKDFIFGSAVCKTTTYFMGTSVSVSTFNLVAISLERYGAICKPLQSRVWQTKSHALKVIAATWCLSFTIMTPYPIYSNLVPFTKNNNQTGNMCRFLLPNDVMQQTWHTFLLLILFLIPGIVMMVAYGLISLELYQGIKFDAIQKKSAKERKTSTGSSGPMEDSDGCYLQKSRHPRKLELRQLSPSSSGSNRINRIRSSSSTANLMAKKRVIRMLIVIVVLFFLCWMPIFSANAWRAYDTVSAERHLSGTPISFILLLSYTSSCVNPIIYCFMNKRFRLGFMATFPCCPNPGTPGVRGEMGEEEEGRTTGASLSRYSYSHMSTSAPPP
assay.notes: CCKA binding assay in guinea-pig pancreas membranes
condition.summary: [125I]-CCK8(S) 200pM, containing 0.375 µM PD134,308, read-out: CCKA pKi (converted)
quantity: Ki (nM)

Here's what some known entries look like.
Which value of Ki has been reported for O=C(O)c1cc(NC(=O)[C@H](Cc2ccccc2)NC(=O)C2C3c4ccccc4C(c4ccccc43)C2C(=O)NCCc2c[nH]c3ccccc23)cc(C(=O)O)c1 (single isomer, unassigned) [Example 50] in the records?
398

Which value of Ki has been reported for O=C(O)c1cc(NC(=O)[C@H](Cc2ccccc2)NC(=O)C2C3c4ccccc4C(c4ccccc43)C2C(=O)NCc2ccc(Cl)c(Cl)c2)cc(C(=O)O)c1 (single isomer, unassigned) [Example 34] in the records?
251

Which value of Ki has been reported for O=C(O)c1cc(NC(=O)[C@H](Cc2ccccc2)NC(=O)C2C3c4ccccc4C(c4ccccc43)C2C(=O)NCc2cccc3ccccc23)cc(C(=O)O)c1 (single isomer, unassigned) [Example 33] in the records?
1260

Which value of Ki has been reported for O=C(O)c1ccccc1NC(=O)[C@H](Cc1ccccc1)NC(=O)C1C2c3ccccc3C(c3ccccc32)C1C(=O)NCC12CC3CC(CC(C3)C1)C2 (stereo partly shown) in the records?
1260

Which value of Ki has been reported for O=C(O)c1cc(NC(=O)[C@H](CCc2ccccc2)NC(=O)C2C3c4ccccc4C(c4ccccc43)C2C(=O)NCC23CC4CC(CC(C4)C2)C3)cc(C(=O)O)c1 (stereo partly shown) in the records?
2000

(P) O=C(O)c1cccc(NC(=O)[C@H](Cc2cccs2)NC(=O)C2C3c4ccccc4C(c4ccccc43)C2C(=O)NCC23CC4CC(CC(C4)C2)C3)c1 (single isomer, unassigned) [Example 56]
(Q) COc1ccc(C[C@H](NC(=O)C2C3c4ccccc4C(c4ccccc43)C2C(=O)NCC23CC4CC(CC(C4)C2)C3)C(=O)Nc2cc(C(=O)O)cc(C(=O)O)c2)cc1 (single isomer, unassigned) [Example 12]
(R) CN(C(=O)C1C2c3ccccc3C(c3ccccc32)C1C(=O)NCC12CC3CC(CC(C3)C1)C2)[C@@H](Cc1ccccc1)C(=O)Nc1cc(C(=O)O)cc(C(=O)O)c1 (stereo partly shown)
List from greatest to least Ki. Lab note: final answer is the ordered label list.
Q, P, R
(Q: 1580 nM, P: 1000 nM, R: 316 nM)

(a) O=C(O)c1cc(NC(=O)[C@H](Cc2ccccc2Cl)NC(=O)C2C3c4ccccc4C(c4ccccc43)C2C(=O)NCC23CC4CC(CC(C4)C2)C3)cc(C(=O)O)c1 (stereo partly shown)
(b) O=C(O)c1cc(NC(=O)[C@H](Cc2cccc(F)c2)NC(=O)C2C3c4ccccc4C(c4ccccc43)C2C(=O)NCC23CC4CC(CC(C4)C2)C3)cc(C(=O)O)c1 (single isomer, unassigned) [Example 19]
// task: argmin of Ki over [ a , b ] Give the label of your selection.
b
(b: 398 nM, a: 2000 nM)
